Data origin, for the record: ChEMBL document CHEMBL1158555

Molecular target: Androgen receptor (Homo sapiens) (UniProt P10275)
Test: Agonist activity at AR in human LNCAP cells assessed as effect on cell proliferation after 6 days
Format: functional, cell-based
Active and inactive are the calls of the source. The rule behind the calls is not given here.
Reply using exactly one outcome from active, inactive

Worked cases, answers included:
CC1(C)C(=O)N(c2ccc(C#N)c(C(F)(F)F)c2)C(=S)N1CCS(N)(=O)=O | inactive
CC1(C)C(=O)N(c2ccc(C#N)c(C(F)(F)F)c2)C(=S)N1CCCS(=O)(=O)O | active
Cc1c(N2C(=O)C(C)(C)N(CCCS(N)(=O)=O)C2=S)ccc(C#N)c1C(F)(F)F | active
CC1(C)C(=O)N(c2ccc(C#N)c(C(F)(F)F)c2)C(=S)N1CCCNS(N)(=O)=O | inactive

Next compound, please.
Prompt line: For `CC1(C)C(=O)N(c2ccc(C#N)c(C(F)(F)F)c2)C(=S)N1CCCC(=O)O` , what call appears in the results of this test?
Response line: inactive

====

Target: Androgen receptor (Homo sapiens) (UniProt P10275)
Sequence (whole entry): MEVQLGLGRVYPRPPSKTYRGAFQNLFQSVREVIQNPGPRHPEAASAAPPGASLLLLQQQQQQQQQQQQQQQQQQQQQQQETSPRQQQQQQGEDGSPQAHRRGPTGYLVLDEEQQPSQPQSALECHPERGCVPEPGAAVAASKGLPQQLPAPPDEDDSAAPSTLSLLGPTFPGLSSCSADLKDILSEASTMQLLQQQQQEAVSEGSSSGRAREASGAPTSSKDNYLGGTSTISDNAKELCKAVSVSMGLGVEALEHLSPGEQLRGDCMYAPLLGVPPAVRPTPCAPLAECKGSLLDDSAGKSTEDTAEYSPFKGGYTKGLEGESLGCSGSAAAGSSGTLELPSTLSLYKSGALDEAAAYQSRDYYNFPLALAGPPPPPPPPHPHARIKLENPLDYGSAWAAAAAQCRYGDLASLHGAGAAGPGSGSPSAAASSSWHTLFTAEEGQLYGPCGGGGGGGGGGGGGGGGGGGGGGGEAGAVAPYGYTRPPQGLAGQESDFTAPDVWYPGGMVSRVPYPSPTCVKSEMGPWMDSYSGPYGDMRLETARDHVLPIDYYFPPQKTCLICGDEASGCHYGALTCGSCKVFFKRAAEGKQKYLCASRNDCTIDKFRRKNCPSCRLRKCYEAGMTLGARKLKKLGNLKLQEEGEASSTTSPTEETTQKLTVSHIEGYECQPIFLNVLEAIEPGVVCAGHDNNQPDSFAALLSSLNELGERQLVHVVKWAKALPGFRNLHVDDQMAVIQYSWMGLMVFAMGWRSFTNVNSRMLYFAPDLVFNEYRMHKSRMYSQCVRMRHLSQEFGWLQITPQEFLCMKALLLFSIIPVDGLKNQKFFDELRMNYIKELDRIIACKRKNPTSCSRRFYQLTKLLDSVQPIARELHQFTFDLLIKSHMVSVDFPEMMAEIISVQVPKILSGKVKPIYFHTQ
Test: Agonist activity at AR in human LNCAP cells assessed as effect on cell proliferation after 6 days
Format: functional, cell-based
Active and inactive are the calls of the source. The calls are words filed in the database; no cut-off is given here.
Reply using exactly one outcome from active, inactive

CN1C(=S)N(c2ccc(C#N)c(C(F)(F)F)c2)C(=O)C1(C)C | active

Prompt line: For `CC1(C)C(=O)N(c2ccc(C#N)c(C(F)(F)F)c2)C(=S)N1CCCC(N)=O` , what call appears in the results of this test?
Response line: inactive

Prompt line: For `CN(C)S(=O)(=O)CCCN1C(=S)N(c2ccc(C#N)c(C(F)(F)F)c2)C(=O)C1(C)C` , what call appears in the results of this test?
Response line: active

Prompt line: For `CC1(C)C(=O)N(c2ccc(C#N)c(C(F)(F)F)c2)C(=S)N1CCCCS(N)(=O)=O` , what call appears in the results of this test?
Response line: inactive

Prompt line: For `COc1cc(N2C(=O)C(C)(C)N(CCCS(N)(=O)=O)C2=S)ccc1C#N` , what call appears in the results of this test?
Response line: active

Prompt line: For `CC1(C)C(=O)N(c2ccc(C#N)c(C(F)(F)F)c2)C(=S)N1CCCNC(N)=O` , what call appears in the results of this test?
Response line: inactive

Prompt line: For `CC1(C)C(=O)N(c2ccc(C#N)c(C(F)(F)F)c2)C(=S)N1CCCc1nnn[nH]1` , what call appears in the results of this test?
Response line: inactive

Prompt line: For `Cc1cc(N2C(=O)C(C)(C)N(CCCS(N)(=O)=O)C2=S)ccc1C#N` , what call appears in the results of this test?
Response line: inactive

Prompt line: For `CNS(=O)(=O)CCCN1C(=S)N(c2ccc(C#N)c(C(F)(F)F)c2)C(=O)C1(C)C` , what call appears in the results of this test?
Response line: inactive

Prompt line: For `CC1(C)C(=O)N(c2ccc(C#N)c(C(F)(F)F)c2)C(=S)N1CCCS(N)(=O)=O` , what call appears in the results of this test?
Response line: inactive

Prompt line: For `CC1(C)C(=O)N(c2ccc(C#N)c(Cl)c2)C(=S)N1CCCS(N)(=O)=O` , what call appears in the results of this test?
Response line: inactive

====

Experiment: Metabolic stability in human liver microsomes assessed as compound remaining at […] after 15 mins by LC-MS/MS analysis
Format: ADME, Microsome
Conditions: read-out: Stability
measured_attribute: remaining (%)
One number for each entry, in %.

Example entries begin here.
CC1(C)C(=O)N(c2ccc(C#N)c(C(F)(F)F)c2)C(=S)N1CCCS(N)(=O)=O | 95
CC1(C)C(=O)N(c2ccc(C#N)c(C(F)(F)F)c2)C(=S)N1CCCC(=O)O | 97
COc1cc(N2C(=O)C(C)(C)N(CCCS(N)(=O)=O)C2=S)ccc1C#N | 100
Cc1c(N2C(=O)C(C)(C)N(CCCS(N)(=O)=O)C2=S)ccc(C#N)c1C(F)(F)F | 89
CC1(C)C(=O)N(c2ccc(C#N)cc2)C(=S)N1CCCS(N)(=O)=O | 92

Please supply remaining for each of the following items, keeping them in order.
1. CC1(C)C(=O)N(c2ccc(C#N)c(Cl)c2)C(=S)N1CCCS(N)(=O)=O
2. Cc1cc(N2C(=O)C(C)(C)N(CCCS(N)(=O)=O)C2=S)ccc1C#N
3. Cc1cc(C#N)c(C(F)(F)F)cc1N1C(=O)C(C)(C)N(CCCS(N)(=O)=O)C1=S

Response line:
1. 100
2. 94
3. 91

====

Target: Androgen receptor (Homo sapiens) (UniProt P10275)
Settings: HeLa
Description: Activity at human AR expressed in human HeLa cells after 48 hrs by stable-luciferase reporter gene assay
measured_attribute: EC5 (nM)
One number for each entry, in nM.

Example entries begin here.
CN1C(=S)N(c2ccc(C#N)c(C(F)(F)F)c2)C(=O)C1(C)C | 0.08
Cc1c(N2C(=O)C(C)(C)N(CCCS(N)(=O)=O)C2=S)ccc(C#N)c1C(F)(F)F | 2000

Prompt line: Please supply the value of reported EC5 for the item `CNS(=O)(=O)CCCN1C(=S)N(c2ccc(C#N)c(C(F)(F)F)c2)C(=O)C1(C)C`
Response line: 1400

====

Molecular target: Androgen receptor (Homo sapiens)
Sequence (whole entry): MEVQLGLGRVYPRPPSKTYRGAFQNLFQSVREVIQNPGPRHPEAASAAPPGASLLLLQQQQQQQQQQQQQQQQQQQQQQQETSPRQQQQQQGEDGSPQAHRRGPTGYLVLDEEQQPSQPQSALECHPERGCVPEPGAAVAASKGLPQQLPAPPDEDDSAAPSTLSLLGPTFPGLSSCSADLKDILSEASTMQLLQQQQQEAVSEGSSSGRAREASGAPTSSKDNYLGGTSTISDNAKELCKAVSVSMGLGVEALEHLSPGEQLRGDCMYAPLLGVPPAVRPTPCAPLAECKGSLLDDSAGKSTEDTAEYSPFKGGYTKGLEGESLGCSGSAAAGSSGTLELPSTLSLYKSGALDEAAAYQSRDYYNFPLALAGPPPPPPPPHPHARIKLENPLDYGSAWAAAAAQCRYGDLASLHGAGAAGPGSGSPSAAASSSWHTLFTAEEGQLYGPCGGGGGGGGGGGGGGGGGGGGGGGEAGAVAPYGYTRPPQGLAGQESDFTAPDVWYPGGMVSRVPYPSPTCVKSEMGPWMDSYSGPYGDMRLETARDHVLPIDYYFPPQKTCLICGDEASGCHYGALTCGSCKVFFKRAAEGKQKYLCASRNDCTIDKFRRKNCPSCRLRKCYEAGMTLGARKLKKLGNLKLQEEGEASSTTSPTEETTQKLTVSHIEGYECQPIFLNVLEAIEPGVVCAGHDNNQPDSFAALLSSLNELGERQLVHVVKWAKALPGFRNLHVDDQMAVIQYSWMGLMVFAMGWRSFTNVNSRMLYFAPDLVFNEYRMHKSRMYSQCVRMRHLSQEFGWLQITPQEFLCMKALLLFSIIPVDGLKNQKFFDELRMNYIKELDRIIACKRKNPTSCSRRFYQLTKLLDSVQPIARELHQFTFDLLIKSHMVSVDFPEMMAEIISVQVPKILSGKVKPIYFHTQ
Details: HeLa
Description: Activity at human AR expressed in human HeLa cells after 48 hrs by transient-luciferase reporter gene assay
For each entry below, report its EC5 value.

Example entries begin here.
CC1(C)C(=O)N(c2ccc(C#N)c(C(F)(F)F)c2)C(=S)N1CCCNS(N)(=O)=O | > 10 µM
CC1(C)C(=O)N(c2ccc(C#N)c(C(F)(F)F)c2)C(=S)N1CCCC(N)=O | 3.6 µM
CN(C)S(=O)(=O)CCCN1C(=S)N(c2ccc(C#N)c(C(F)(F)F)c2)C(=O)C1(C)C | 0.11 µM
CN1C(=S)N(c2ccc(C#N)c(C(F)(F)F)c2)C(=O)C1(C)C | < 0.001 µM

Please supply EC5 for each of the following items, keeping them in order.
1. CC1(C)C(=O)N(c2ccc(C#N)c(C(F)(F)F)c2)C(=S)N1CCCc1nnn[nH]1
2. CC1(C)C(=O)N(c2ccc(C#N)c(C(F)(F)F)c2)C(=S)N1CCCNC(N)=O
3. CC1(C)C(=O)N(c2ccc(C#N)c(C(F)(F)F)c2)C(=S)N1CCCCS(N)(=O)=O
4. CC1(C)C(=O)N(c2ccc(C#N)c(C(F)(F)F)c2)C(=S)N1CCCS(N)(=O)=O
5. CC1(C)C(=O)N(c2ccc(C#N)c(C(F)(F)F)c2)C(=S)N1CCS(N)(=O)=O

Response line:
1: > 10 µM; 2: 0.65 µM; 3: > 10 µM; 4: > 10 µM; 5: > 10 µM
